- Test: S. cerevisiae growth inhibition in permissive medium (OD615), pilot counter-assay for S. cerevisiae lifespan shortening project, permissive growth control (AID 705)
- Details: OD615, 24 h, at 10 µM, active compounds read high
The source made the active and inactive calls.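 The calls were made as follows: active = growth inhibition above 25% in both replicates, a cutoff set 3 SD above the mean; inconclusive = above 25% in only one replicate; inactive = the rest.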
Measured quantity: growth inhibition

Below are worked cases with known answers.
CCSc1nnc(Cc2cc(=O)[nH]c(=O)[nH]2)n1-c1cccc(C)c1 = -8.16% (inactive)
O=C(COc1ccc(Cl)cc1)Nc1nnc(-c2ccc3c(c2)CCCC3)o1 = -12.6% (inactive)

Record CC(C)C(NC(=O)CN1C(=O)c2ccccc2S1(=O)=O)C(C)C . Reported growth inhibition: -10% (inactive)

* * *

- Test: reduced viability of SK-BR-3 breast cancer cells – cell-based, 24 h, human, pilot screen (AID 572);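 also: compound exposure lasted between 18 and 24 h rather than exactly 24 h; 100% = carrier-treated control wells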
- Details: SK-BR-3 viability, CellTiter-Glo luminescence, at 10 µM, active compounds read low
Measured quantity: viability (%)
Quick note: give the figure in %, leave out the unit.

CCOC(=O)N1CCN(C(=O)CSc2nnc(-c3cccc(Cl)c3)o2)CC1 = 82.5
CC(=O)Nc1nnc(SCC(=O)NCC2CCCO2)s1 (stereo unspecified) = 70
CC(=O)c1c(OC(=O)c2ccco2)c2ccccc2n1C = 91
CCOC(=O)Cc1ccc(NS(=O)(=O)c2ccc(SC)cc2)cc1 = 89
Cc1nn(C(=O)c2ccoc2C)c(N)c1-c1ccccc1 = 101

Record Fc1ccc(-c2ccc(-c3nn4c(-c5ccco5)nnc4s3)o2)cc1 . Reported viability: 76

* * *

# growth inhibition values compiled below
- Test: S. cerevisiae growth inhibition in restrictive medium, OD615, pilot screen, restrictive growth control, yeast lifespan reduction project (AID 706);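 also: modified DeaD lifespan yeast strain shifted to restrictive glucose medium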
- Details: OD615, 48 h, at 10 µM, active compounds read high
Quick note: give the figure in %, leave out the unit.

Below are worked cases with known answers.
CCOC(=O)N1CCC(N2CC34C=CC(O3)C(C(=O)Nc3ccc(F)cc3)C4C2=O)CC1 (stereo unspecified) = -3.7
Cc1ccc(C(=O)NC(Cc2c[nH]c3ccccc23)C(=O)O)o1 (stereo unspecified) = -2.65
CCOc1ccc(NS(=O)(=O)c2cc(Cl)ccc2OC)cc1 = -13.3
O=C(Nc1c(C(=O)Nc2ccccc2)cnn1-c1ccccc1)c1ccco1 = -2.03
Cc1cc(C)n(C(=O)CCN2C(=O)c3ccccc3C2=O)n1 = 5.39

Okay, now this compound:
Record COc1ccc(CC(=O)Nc2cc(=O)n(C)c(=O)n2C)cc1 . Reported growth inhibition: -4.35

* * *

- Test: H69AR cell proliferation blockers – human, duplicate replicates, primary screen (AID 580);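 also: 100% = mean luminescence of untreated wells and 0% = no signal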
- Details: H69AR lung tumor cells viability, ATP luminescence, 72 h; at 10 µM; active compounds read low
Please use y for viability under 90% and n for everything else, ties included.

Before answering, review these 5 worked examples.
COc1ccc(NC(=O)CC2Sc3ncnn3C2=O)cc1 (stereo not given) = n
CCN(CC)c1ccc(NC(=O)CN2C(=O)CC(C)(C)S(=O)(=O)c3ccccc32)c(C)c1 = y
O=c1[nH]c(SCc2ccc(F)cc2)nc2c1cnn2-c1ccc(F)cc1 = y
COc1ccc(NC(=O)CN(c2ccc(C(C)C)cc2)S(=O)(=O)c2c(C)noc2C)cc1OC = y
O=C(Cn1ncc2c1-c1ccccc1OC2)Nc1ccc(Cl)cn1 = n

stdin: Could you please tell me whether viability recorded for CC1CCN(C(=O)CSc2nc3c(cnn3-c3ccccc3)c(=O)[nH]2)CC1 is less than 90%?
stdout: y

stdin: Could you please tell me whether viability recorded for CCN1CCN(C(=O)Cn2ncc3ccsc3c2=O)CC1 is less than 90%?
stdout: n

stdin: Could you please tell me whether viability recorded for CCn1cc(C(=O)NCc2ccccc2OC)c(=O)c2cc(S(=O)(=O)N(C)C)ccc21 is less than 90%?
stdout: y

stdin: Could you please tell me whether viability recorded for O=C(Nc1c(C(=O)NCc2ccco2)cnn1-c1ccccc1)c1ccc(F)cc1 is less than 90%?
stdout: n

stdin: Could you please tell me whether viability recorded for COC(=O)Cn1ncc2c(C)n(Cc3ccccc3)c(C)c2c1=O is less than 90%?
stdout: n

* * *

# inhibition values compiled below
- Test: growth suppression of yeast trafficking mutant, preliminary HTS, modulators of trafficking downstream of Golgi apparatus project, 1536-format plate, OD 615 nm (AID 637)
- Details: yeast transport mutant growth, absorbance 615 nm, 18 h; active compounds read high
Quick note: give the figure in %, leave out the unit.

COc1cccc(-c2nc3n(n2)C(c2cccs2)C(C(=O)Nc2cccnc2)=C(C)N3)c1 (configuration not stated) = -0.67
CC(c1ccco1)N(C(=O)COc1ccc(Cl)cc1Cl)c1ccccn1 (configuration not stated) = -10.3
Cc1ccc2c(c1)C1CCCC3C1N2CC(=O)N3Cc1ccccc1 (configuration not stated) = 0.97
CCN(CC)S(=O)(=O)c1ccc2oc(C(=O)N3CCOCC3)c(C)c2c1 = -4.84
CC(=O)N1c2c(cc(Br)cc2S(=O)(=O)N2CCN(c3ccccn3)CC2)CC1C (configuration not stated) = 24.6
CN(C)CCCN1C(=O)c2oc3ccc(Cl)cc3c(=O)c2C1c1cccnc1 (configuration not stated) = 3.5
O=C(c1cnc2n(c1=O)CCS2)N(C1CCCCC1)C1CCCCC1 = -1
COc1cccc2cc(C(=O)Nc3cccnc3N3CCOCC3)c(=O)oc12 = 3.65
Cn1c(C(=O)NCCN2CCN(c3ccccc3F)CC2)cc2c(=O)n(C)c3ccccc3c21 = 2
O=C(Cn1cc2c(n1)CCCC2)NCCc1ccccc1 = -4.33

Record COc1ccccc1NC(=O)CSc1nnc(Cc2cccn2C)n1-c1ccc(F)cc1 . Reported inhibition: -2.67

Record CCCCN(C(=O)c1ccc(Cl)cc1)C1CC2CCC(C1)N2C (configuration not stated) . Reported inhibition: -4

Record O=C(NCCN1CCN(c2ccccc2)CC1)c1ccc(NC(=O)C2CCCO2)cc1 (configuration not stated) . Reported inhibition: -0.48

Record CC(=O)N(c1ccc(Br)cc1)C1C=CS(=O)(=O)C1 (configuration not stated) . Reported inhibition: 1.5

Record CCCNc1nc(N2CCOCC2)nc(N2CCOCC2)n1 . Reported inhibition: -7.38

Record CC(C)C(=O)Nc1ccc(-c2nc3cccnc3o2)cc1 . Reported inhibition: -5.33

Record COc1ccccc1N1CCN(C(=O)C2CCN(S(=O)(=O)c3ccc(F)cc3)CC2)CC1 . Reported inhibition: 8.55

Record c1nc(NCC2CCCO2)c2[nH]cnc2n1 (configuration not stated) . Reported inhibition: 4

Record COc1cccc(C2C(C(=O)c3cccs3)=C(O)C(=O)N2CCCn2ccnc2)c1OC (configuration not stated) . Reported inhibition: 3.09

Record Cc1ccc(C)c(N2CCN(C(=O)c3cc4ccccn4n3)CC2)c1 . Reported inhibition: 8.33

Record O=C(OCCN=C1NS(=O)(=O)c2ccccc21)C1CC(=O)N(c2ccc(Cl)cc2)C1 (configuration not stated) . Reported inhibition: -1.67

Record CCOC(=O)N1CCC(Nc2ncnc3c2cnn3-c2ccc(C)cc2C)CC1 . Reported inhibition: 1.5

* * *

# viability values compiled below
- Test: viability of HCT116 without oncogenic beta-catenin – human colon tumor cells, pilot screen (AID 823);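 also: 0% = wells killed by 20 µM Hyamine and 100% = untreated DMSO cell wells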
- Details: HCT116 beta-catenin knockout viability, CellTiter-Glo, 60 h; at 10 µM; active compounds read low
Inconclusive results are not listed. Activity calls are given as the source filed them.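 How the source made its calls: active means cell viability at or below a set limit in both duplicate runs, the limit being the all-compound median minus 4 SD (cut at about 23% in these data, passing the limit was not always enough); inconclusive means no clear call, values can overlap the other calls; inactive means the rest.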

CC(=O)Oc1ccc(C(=O)Nc2nnc(C)s2)cc1 = 100% (inactive)

Record COC(=O)c1ccccc1NC1c2ccccc2C(=O)N1c1cccnc1 (stereo not drawn) . Reported viability: 94.4% (inactive)

Record CCN1CCN(C(=O)c2oc(=O)c3ccccc3c2-c2ccc(C)cc2)CC1 . Reported viability: 91.9% (inactive)

Record CCCc1cc(C(=O)Nc2ccc(C(C)=O)cc2)no1 . Reported viability: 98.5% (inactive)

Record COc1ccccc1NC(=O)C1=C(C)Nc2nnnn2C1c1cccc(C)c1 (stereo not drawn) . Reported viability: 82.3% (inactive)

Record CCSC1=C(C#N)C(c2cccc(O)c2)CC(=O)N1 (stereo not drawn) . Reported viability: 98.2% (inactive)

Record O=C(OCCN=C1NS(=O)(=O)c2ccccc21)C1CC(=O)N(c2ccc(Cl)cc2)C1 (stereo not drawn) . Reported viability: 107% (inactive)

Record COC(=O)c1c(NC(=O)c2nc3ccccc3s2)sc2c1CCN(C(C)=O)C2 . Reported viability: 71.7% (inactive)

Record O=C1C/C(=C/NCc2ccccc2)C(=O)N1 . Reported viability: 99.7% (inactive)

Record O=c1c(-c2ccccc2)coc2c(CN3CCOCC3)c(O)ccc12 . Reported viability: 91.7% (inactive)

Record COCCN(CCOC)c1ncnc2c1cnn2-c1ccccc1 . Reported viability: 107% (inactive)

Record Nc1nc(N2CCCCC2)nc(N(c2ccccc2)c2ccccc2)n1 . Reported viability: 89.5% (inactive)

Record O=C1c2ccccc2C(Nc2ccc3c(c2)OCO3)N1Cc1ccc2c(c1)OCO2 (stereo not drawn) . Reported viability: 76.8% (inactive)

Record CCn1cc(C(=O)NCC2COc3ccccc3O2)c2cc(OC)c(OC)cc2c1=O (stereo not drawn) . Reported viability: 97.9% (inactive)

Record COC(=O)CCCCC(=O)C1C(=O)CC(C)(C)C(C(=O)OC)C1=O (stereo not drawn) . Reported viability: 94.4% (inactive)

Record Cn1cccc1Cc1nnc(SCC(=O)NCC2CCCO2)n1-c1ccc(F)cc1 (stereo not drawn) . Reported viability: 108% (inactive)

Record O=C1c2ccccc2S(=O)(=O)N1CC(O)Cn1c2ccccc2c2ccccc21 (stereo not drawn) . Reported viability: 89.7% (inactive)

Record O=C(Nc1ccc(CN2CCOCC2)cc1)c1cc2ccccn2n1 . Reported viability: 100% (inactive)

Record CC(C)N(Cc1nc2ccccc2[nH]1)C(C)C . Reported viability: 94.1% (inactive)

Record OC1(c2cccc(C(F)(F)F)c2)CCN(c2ccc(-c3ccccc3)nn2)CC1 . Reported viability: 10.7% (active)

Record O=C(CCc1nc2ccccc2[nH]1)Nc1ccc2c(c1)OCCO2 . Reported viability: 94.2% (inactive)

Record CCCCNC(=O)Nc1ccnn1C1CCCCC1 . Reported viability: 97.9% (inactive)

Record O=C(Cn1nc(Cc2cccnc2)c2ccccc2c1=O)NCC1CCCO1 (stereo not drawn) . Reported viability: 105% (inactive)

Data origin: PubChem BioAssay
